- Test system: Wolbachia pipientis
- Measurement notes: Anti-Wolbachia Cell-Based Screen
- Format: functional
- Set-up: scale not given: in the data most compounds retested in dose-response had high values
- Protocol conditions: 5 µM
The whole screen tested about 48,000 compounds, of which about 13,000 (27%) showed an effect of 50% or more. This is one part of the list.
Measure: Percent Effect (%)

>  <Compound>
CCn1cc(CN2CCCN(C(=O)CCN3CCCC3=O)CC2)cn1

>  <Endpoint result>
112.3

$$$$
>  <Compound>
COCCN1C[C@H]2CN(Cc3cccc(OC(F)(F)F)c3)CCN2C1=O

>  <Endpoint result>
-4.744

$$$$
>  <Compound>
CC(C)Oc1cc(N2CCC(N3CCC(O)CC3)CC2)nc(N)n1

>  <Endpoint result>
11.59

$$$$
>  <Compound>
Cn1cc(CCC(=O)N2CCN(Cc3ccncc3)CC2)cn1

>  <Endpoint result>
-1.736

$$$$
>  <Compound>
O=C(Cn1nc2c(cc1=O)CCCC2)NC(Cc1ccccc1)C(=O)O (stereo unspecified)

>  <Endpoint result>
101

$$$$
>  <Compound>
CCn1cc(CN2CCCN(C(=O)C3=NN(C)C(=O)CC3)CC2)cn1

>  <Endpoint result>
3.458

$$$$
>  <Compound>
Cc1noc(C)c1CN1CCCC(CN(C(=O)OC(C)(C)C)C(C)C)C1 (stereo unspecified)

>  <Endpoint result>
-2.017

$$$$
>  <Compound>
O=C(Cn1nc2c(cc1=O)CCCC2)N[C@@H](C(=O)O)c1ccccc1

>  <Endpoint result>
11.26

$$$$
>  <Compound>
CCCn1nc2c(cc1=O)CN(CC(=O)Nc1cc(C)no1)CC2

>  <Endpoint result>
-28.4

$$$$
>  <Compound>
CCn1cc(CN2CCCN(C(=O)CCCn3cncn3)CC2)cn1

>  <Endpoint result>
2.568

$$$$
>  <Compound>
CC(C)c1cc(NC(=O)CN2CCc3nn(C)c(=O)cc3C2)on1

>  <Endpoint result>
-16.14

$$$$
